Target: T1, CD3 epsilon homodimer protein (UniProt P07766 23-126)
T1 construct: also called CD3 (CD3 epsilon)
T1 sequence (P07766 23-126): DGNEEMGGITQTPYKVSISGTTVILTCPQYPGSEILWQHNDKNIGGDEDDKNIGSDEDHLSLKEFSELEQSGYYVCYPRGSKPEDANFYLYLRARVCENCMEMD
Assay: SPR, antibody over immobilised CD3e homodimer;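 note: SPR at 25 °C with CD3 epsilon homodimer amine-coupled to a CM4 sensor chip and antibody flowed over as analyte in HBS-EP+ running buffer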
KD ratio to GLS3000 listing for selected binders.
Respond with the number and no other words.

Below, 4 binders whose answers are already recorded.
{"Binder": "CE115HA000/GLS3000 S27eV (antibody, IgG1, name in Kabat numbering, V domains shown, one-arm IgG1) VH: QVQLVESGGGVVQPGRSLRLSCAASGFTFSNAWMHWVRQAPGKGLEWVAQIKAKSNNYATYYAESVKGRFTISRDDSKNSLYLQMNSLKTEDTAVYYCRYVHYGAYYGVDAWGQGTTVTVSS VL: DIVMTQSPLSLPVTPGEPASISCRSSQSLVHVNRNTYLHWYQQKPGQAPRLLIYKVSNRFSGVPDRFSGSGSGTDFTLKISRVEAEDVGVYYCGQGTQVPYTFGQGTKLEIK", "KD ratio to GLS3000": 0.95}
{"Binder": "CE115HA000/GLS3000 S56K (antibody, IgG1, name in Kabat numbering, V domains shown, one-arm IgG1) VH: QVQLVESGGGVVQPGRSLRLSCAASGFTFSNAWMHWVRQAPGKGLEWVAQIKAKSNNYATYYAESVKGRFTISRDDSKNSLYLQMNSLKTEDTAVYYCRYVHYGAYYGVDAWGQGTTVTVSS VL: DIVMTQSPLSLPVTPGEPASISCRSSQSLVHSNRNTYLHWYQQKPGQAPRLLIYKVSNRFKGVPDRFSGSGSGTDFTLKISRVEAEDVGVYYCGQGTQVPYTFGQGTKLEIK", "KD ratio to GLS3000": 1.21}
{"Binder": "CE115HA000/GLS3000 S27eL (antibody, IgG1, name in Kabat numbering, V domains shown, one-arm IgG1) VH: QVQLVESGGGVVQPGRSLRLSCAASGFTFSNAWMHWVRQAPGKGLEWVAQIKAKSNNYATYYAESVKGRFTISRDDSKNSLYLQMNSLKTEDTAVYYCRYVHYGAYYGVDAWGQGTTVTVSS VL: DIVMTQSPLSLPVTPGEPASISCRSSQSLVHLNRNTYLHWYQQKPGQAPRLLIYKVSNRFSGVPDRFSGSGSGTDFTLKISRVEAEDVGVYYCGQGTQVPYTFGQGTKLEIK", "KD ratio to GLS3000": 1.06}
{"Binder": "CE115HA000/GLS3000 G91T (antibody, IgG1, name in Kabat numbering, V domains shown, one-arm IgG1) VH: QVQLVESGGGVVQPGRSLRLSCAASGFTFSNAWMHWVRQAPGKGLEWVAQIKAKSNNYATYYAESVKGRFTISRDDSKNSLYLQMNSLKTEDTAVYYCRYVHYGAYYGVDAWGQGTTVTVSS VL: DIVMTQSPLSLPVTPGEPASISCRSSQSLVHSNRNTYLHWYQQKPGQAPRLLIYKVSNRFSGVPDRFSGSGSGTDFTLKISRVEAEDVGVYYCGQTTQVPYTFGQGTKLEIK", "KD ratio to GLS3000": 39.9}

As a next step, examine the binder that follows.
Task: Consider the binder CE115HA000/GLS3000 H27dT (antibody, IgG1, name in Kabat numbering, V domains shown, one-arm IgG1) VH: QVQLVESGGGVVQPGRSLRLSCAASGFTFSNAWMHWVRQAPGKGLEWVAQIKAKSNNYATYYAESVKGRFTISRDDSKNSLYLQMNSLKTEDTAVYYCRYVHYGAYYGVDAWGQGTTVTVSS VL: DIVMTQSPLSLPVTPGEPASISCRSSQSLVTSNRNTYLHWYQQKPGQAPRLLIYKVSNRFSGVPDRFSGSGSGTDFTLKISRVEAEDVGVYYCGQGTQVPYTFGQGTKLEIK and give its measured KD ratio to GLS3000.
Result: 13000
